Test system: T-47D breast
Method notes: NCI tumour cell line growth inhibition, 48 h; in the data active = GI50 below about 0.43 µM; inactive = the rest
Tick one outcome: t for active, f for inactive

[[record]]
molecule = "C[C@]12CC[C@@H]3c4cc(-c5ccc(F)cc5)c(O)cc4CC[C@H]3[C@@H]1CC[C@@H]2O"
label_class = "f"

[[record]]
molecule = "COc1ccc(/C(COc2ccc3c(=O)c(-c4ccccc4)coc3c2)=N\\O)cc1"
label_class = "f"

[[record]]
molecule = "O=C1CC(=O)N(C(=O)c2nn(-c3ccc(Cl)cc3)cc2O)N1"
label_class = "f"

[[record]]
molecule = "COC(=O)c1cc2c3ccccc3n3c(=O)c4cc5ccccc5nc4c(n1)c23"
label_class = "f"

[[record]]
molecule = "CC(C)C[C@H](NC(=O)Cn1ccc(NCc2ccccc2)cc1=O)B(O)O"
label_class = "f"


GET /call?item= Cc1cc(O)cc2c1[C@]1(C)CCC3C(C)(C)CCC[C@]3(C)[C@H]1C2 (some centres not stated) returns the recorded outcome of this test. f

// param item: `CC(=O)N1C/C(=C/c2ccc(Cl)cc2)C(=O)/C(=C/c2ccc(Cl)cc2)C1` ; yields the recorded call f

Could you kindly confirm the outcome this assay logged for C[C@]12CC[C@H](OC3OC(CO)C(O)C(O)C3O)C[C@H]1CC[C@@H]1[C@@H]2CC[C@]2(C)[C@@H](C3=CCOC3=O)CC[C@]12O (some centres not stated) ? f

Look up the recorded call for `O=S(=O)(NCCCNc1nccc(-c2c(-c3ccc(F)c(O)c3)nc3sccn23)n1)c1ccc(F)cc1` in this test. f

Recorded test outcome, item `C=C1C(=O)O[C@H]2[C@H]1CC/C(COC(=O)c1cc3ccccc3o1)=C\CC[C@@]1(C)O[C@@H]21` f

Test call for this molecule, please: `O=C1NC(=O)C(c2ccccc2Cl)=C1Nc1cc(Cl)c(O)c(Cl)c1` f

Called result for `C/C(=N\Nc1cc(C)c2ccccc2n1)c1ccccn1` t
